- assayTarget: acetylcholinesterase enzyme from electric eel (Electrophorus electricus, UniProt O42275)
- Construct: purchased Sigma-Aldrich CAS Number 9000-81-1 (catalogue number not given)
- Sequence (O42275 24-633): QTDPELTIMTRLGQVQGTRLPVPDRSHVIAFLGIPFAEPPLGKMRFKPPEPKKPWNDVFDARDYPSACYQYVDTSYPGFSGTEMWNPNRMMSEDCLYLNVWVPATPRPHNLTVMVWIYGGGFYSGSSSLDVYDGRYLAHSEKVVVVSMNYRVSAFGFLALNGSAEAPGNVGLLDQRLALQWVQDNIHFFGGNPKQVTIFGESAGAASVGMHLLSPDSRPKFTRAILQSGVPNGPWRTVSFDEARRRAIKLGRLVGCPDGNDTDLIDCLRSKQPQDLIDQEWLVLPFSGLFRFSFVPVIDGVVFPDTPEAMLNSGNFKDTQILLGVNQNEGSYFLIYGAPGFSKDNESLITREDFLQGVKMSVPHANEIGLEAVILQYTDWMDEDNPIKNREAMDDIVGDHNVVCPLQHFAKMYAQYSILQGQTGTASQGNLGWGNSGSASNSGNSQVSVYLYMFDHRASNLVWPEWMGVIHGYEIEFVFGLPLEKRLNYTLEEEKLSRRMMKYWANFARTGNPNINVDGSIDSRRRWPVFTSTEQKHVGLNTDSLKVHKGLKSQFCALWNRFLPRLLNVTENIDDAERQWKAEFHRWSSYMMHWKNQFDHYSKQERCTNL
- assayDetails: Acetylcholinesterase (AChE) inhibitory assay (DTNB/acetylthiocholine iodide, absorbance at 412 nm)
- Type: biochemical
- conditionInfo: Conc 25 ug/ml
- Experimental: The in vitro cholinesterase inhibitory activity of the 14 synthesized spiro-oxindole derivatives (IIa–n) were evaluated. […] Galantamine was used as a positive control for comparison. Acetylcholinesterase (AChE) inhibitory assay. […] The initial screening was carried out at 50 μg/mL of test samples in 1% DMSO. Absorbance of the test samples was corrected by subtracting the absorbance of their respective blank. […]
Give inhibition at 25 µg/mL for every item shown.
Answers are plain numbers, in %.

1) O=C(c1ccc(F)cc1)C1C(c2cc3ccccc3s2)C2CSCN2[C@@]12C(=O)Nc1ccc(Cl)cc12 (some centres unmarked)    59
2) O=C(c1ccc(Cl)cc1)C1C(c2cc3ccccc3s2)C2CSCN2[C@@]12C(=O)Nc1ccc(Cl)cc12 (some centres unmarked)    53.3
3) O=C(c1ccc(F)cc1)C1C(c2cc3ccccc3s2)C2C3CCCCC3CN2[C@@]12C(=O)Nc1ccc(Cl)cc12 (some centres unmarked)    27.4
4) O=C(c1ccccc1)C1C(c2cc3ccccc3s2)C2C3CCCCC3CN2[C@@]12C(=O)Nc1ccc(Cl)cc12 (some centres unmarked)    61.6

Let us examine a further case.
INPUT: What value of measured inhibition at 25 µg/mL is listed for O=C(c1ccccc1)C1C(c2cc3ccccc3s2)C2CSCN2[C@@]12C(=O)Nc1ccc(Cl)cc12 (some centres unmarked) ?
OUTPUT: 39
